Test: Pharmacokinetic study in mice
Format: in vivo
Details: female, ICR, mouse, plasma, intraperitoneal, 10 mg/kg, mice, intraperitoneal 10 mg/kg, 1 h, n = 8; read-out: plasma concentration, mean ± S.D
Result type: concentration at 1 h (ng/mL)
The reply should be a number in ng/mL, with the unit left off.

Consider the compound C=C[C@]1(C)C[C@@H](OC(=O)CSc2ccccc2N)[C@]2(C)[C@H](C)CC[C@]3(CCC(=O)[C@H]32)[C@@H](C)[C@@H]1O and give its measured concentration at 1 h. 580

====

Assay: Pharmacokinetic study in mice
Format: in vivo
Conditions: female, ICR, mouse, plasma; mice, 10 mg/kg, oral
Result type: MRT (h)
The reply should be a number in h, with the unit left off.

Consider the molecule C=C[C@]1(C)C[C@@H](OC(=O)CSc2ccccc2N)[C@]2(C)[C@H](C)CC[C@]3(CCC(=O)[C@H]32)[C@@H](C)[C@@H]1O [Amphenmulin] and give its measured MRT. 4.01
